# assayed.system: IKZF1 (Homo sapiens, UniProt Q13422)
# Construct: expressed in transfected cells; host or cells: Flp-In 293
# Sequence (Q13422 83-213 isoform Q13422-7 limits assumed): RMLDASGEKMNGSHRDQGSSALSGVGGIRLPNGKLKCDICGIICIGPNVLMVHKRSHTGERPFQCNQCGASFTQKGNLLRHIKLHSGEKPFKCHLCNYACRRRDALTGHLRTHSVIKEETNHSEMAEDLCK
# Sequence (Q96SW2 whole entry partner): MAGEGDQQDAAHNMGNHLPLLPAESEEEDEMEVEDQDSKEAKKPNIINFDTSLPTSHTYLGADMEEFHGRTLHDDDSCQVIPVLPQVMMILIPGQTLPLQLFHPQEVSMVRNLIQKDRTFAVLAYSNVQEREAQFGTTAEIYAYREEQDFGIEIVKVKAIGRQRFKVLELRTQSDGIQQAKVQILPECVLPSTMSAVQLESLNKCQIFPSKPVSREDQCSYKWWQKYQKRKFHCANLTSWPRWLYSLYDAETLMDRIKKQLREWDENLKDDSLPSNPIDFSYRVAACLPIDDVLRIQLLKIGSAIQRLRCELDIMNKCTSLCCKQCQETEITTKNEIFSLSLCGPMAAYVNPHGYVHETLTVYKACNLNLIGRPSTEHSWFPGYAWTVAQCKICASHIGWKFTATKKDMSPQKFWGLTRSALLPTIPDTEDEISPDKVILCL
# Sequence (Q16531 2-1140 partner limits assumed): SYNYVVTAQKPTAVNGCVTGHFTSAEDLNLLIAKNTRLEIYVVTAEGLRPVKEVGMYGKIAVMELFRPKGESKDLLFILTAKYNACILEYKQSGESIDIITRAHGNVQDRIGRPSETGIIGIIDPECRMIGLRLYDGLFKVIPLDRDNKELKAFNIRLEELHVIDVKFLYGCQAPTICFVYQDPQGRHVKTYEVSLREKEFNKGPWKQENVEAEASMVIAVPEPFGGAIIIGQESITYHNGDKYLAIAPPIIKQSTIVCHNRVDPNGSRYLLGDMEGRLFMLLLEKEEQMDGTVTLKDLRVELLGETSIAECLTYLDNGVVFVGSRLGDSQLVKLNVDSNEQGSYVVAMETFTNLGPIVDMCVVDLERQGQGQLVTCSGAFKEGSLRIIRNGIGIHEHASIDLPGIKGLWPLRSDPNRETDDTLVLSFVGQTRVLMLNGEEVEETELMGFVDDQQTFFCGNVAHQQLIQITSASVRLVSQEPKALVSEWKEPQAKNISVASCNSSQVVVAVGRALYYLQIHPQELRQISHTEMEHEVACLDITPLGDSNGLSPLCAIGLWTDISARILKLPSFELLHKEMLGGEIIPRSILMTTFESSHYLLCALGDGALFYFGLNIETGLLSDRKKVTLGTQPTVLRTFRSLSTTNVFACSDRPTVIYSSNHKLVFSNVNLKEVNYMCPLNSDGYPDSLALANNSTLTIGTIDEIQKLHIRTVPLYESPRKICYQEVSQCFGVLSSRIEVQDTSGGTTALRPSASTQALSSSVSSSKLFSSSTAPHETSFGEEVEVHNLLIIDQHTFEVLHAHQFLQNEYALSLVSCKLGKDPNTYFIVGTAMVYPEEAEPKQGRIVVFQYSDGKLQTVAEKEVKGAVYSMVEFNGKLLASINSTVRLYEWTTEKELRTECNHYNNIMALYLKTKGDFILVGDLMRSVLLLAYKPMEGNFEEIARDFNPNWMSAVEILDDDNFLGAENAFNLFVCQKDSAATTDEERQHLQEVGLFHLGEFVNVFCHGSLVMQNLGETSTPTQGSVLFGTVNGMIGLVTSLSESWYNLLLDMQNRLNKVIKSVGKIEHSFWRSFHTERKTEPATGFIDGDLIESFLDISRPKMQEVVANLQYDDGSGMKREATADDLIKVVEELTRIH
# protocol.notes: Cellular degradation assay, eGFP-IKZF1Δ fusion with mCherry reporter in Flp-In 293 cells
# Assay type: cell-based
# run.conditions: compound concentration 2.00E−05; 5 h incubation; n=1
measurement.kind: IKZF1 GFP/RFP Relative Abundance
Note: the reply should be a number with no unit written.

Here O=C1CCC(N2C(=O)C=C(Nc3ccc(Cc4ccccc4)cc3)C2=O)C(=O)N1 (stereo not shown) [Compound 39] was tested on IKZF1 (Homo sapiens, UniProt Q13422), and its IKZF1 GFP/RFP Relative Abundance came to 0.705

Here Cc1ccc(NC(=O)c2cccc(NC3=CC(=O)N(C4CCC(=O)NC4=O)C3=O)c2)cc1Cl (stereo not shown) [Compound 49] was tested on IKZF1 (Homo sapiens, UniProt Q13422), and its IKZF1 GFP/RFP Relative Abundance came to 0.268

Here Cc1ccc(NC(=O)NCc2cccc(OC3=CC(=O)N(C4CCC(=O)NC4=O)C3=O)c2)cc1Cl (stereo not shown) [Compound 64] was tested on IKZF1 (Homo sapiens, UniProt Q13422), and its IKZF1 GFP/RFP Relative Abundance came to 1.154

Here Cc1ccc(NC(=O)Cc2cccc(NC3=CC(=O)N(C4CCC(=O)NC4=O)C3=O)c2)cc1Cl (stereo not shown) [Compound 50] was tested on IKZF1 (Homo sapiens, UniProt Q13422), and its IKZF1 GFP/RFP Relative Abundance came to 0.073

Here O=C1CCC(N2C(=O)C=C(Nc3ccc4cc[nH]c4c3)C2=O)C(=O)N1 (stereo not shown) [Compound 37] was tested on IKZF1 (Homo sapiens, UniProt Q13422), and its IKZF1 GFP/RFP Relative Abundance came to 0.315

Here Cc1ccc(CNC(=O)Cc2cccc(NC3=CC(=O)N(C4CCC(=O)NC4=O)C3=O)c2)cc1Cl (stereo not shown) [Compound 123] was tested on IKZF1 (Homo sapiens, UniProt Q13422), and its IKZF1 GFP/RFP Relative Abundance came to 0.083

Here O=C1CCC(N2C(=O)C=C(Nc3ccccc3)C2=O)C(=O)N1 (stereo not shown) [Compound 2] was tested on IKZF1 (Homo sapiens, UniProt Q13422), and its IKZF1 GFP/RFP Relative Abundance came to 0.143

Here COC(=O)CNC1=CC(=O)N(C2CCC(=O)NC2=O)C1=O (stereo not shown) [Compound 13] was tested on IKZF1 (Homo sapiens, UniProt Q13422), and its IKZF1 GFP/RFP Relative Abundance came to 1.069

Here O=C1CCC(N2C(=O)C=C(Nc3ccc(-n4ccnc4)cc3)C2=O)C(=O)N1 (stereo not shown) [Compound 29] was tested on IKZF1 (Homo sapiens, UniProt Q13422), and its IKZF1 GFP/RFP Relative Abundance came to 0.495

Here Cc1ccc(NC(=O)NC(C)c2cccc(NC3=CC(=O)N(C4CCC(=O)NC4=O)C3=O)c2)cc1Cl (stereo not shown) [Compound 54] was tested on IKZF1 (Homo sapiens, UniProt Q13422), and its IKZF1 GFP/RFP Relative Abundance came to 0.119

Here Cc1ccc(NC(=O)OCCc2cccc(NC3=CC(=O)N(C4CCC(=O)NC4=O)C3=O)c2)cc1Cl (stereo not shown) [Compound 110] was tested on IKZF1 (Homo sapiens, UniProt Q13422), and its IKZF1 GFP/RFP Relative Abundance came to 0.096

Here O=C1CCC(N2C(=O)C=C(Nc3cccc(CNC(=O)NCc4ccccc4)c3)C2=O)C(=O)N1 (stereo not shown) [Compound 81] was tested on IKZF1 (Homo sapiens, UniProt Q13422), and its IKZF1 GFP/RFP Relative Abundance came to 0.063

Here Cc1ccc(NCc2cccc(NC3=CC(=O)N(C4CCC(=O)NC4=O)C3=O)c2)cc1Cl (stereo not shown) [Compound 63] was tested on IKZF1 (Homo sapiens, UniProt Q13422), and its IKZF1 GFP/RFP Relative Abundance came to 0.081

Here Cc1ccc(NC(=O)NCc2cc(NC(=O)N(C)C)cc(NC3=CC(=O)N(C4CCC(=O)NC4=O)C3=O)c2)cc1Cl (stereo not shown) [Compound 112] was tested on IKZF1 (Homo sapiens, UniProt Q13422), and its IKZF1 GFP/RFP Relative Abundance came to 0.726

Here Cc1ccc(NC(=O)Nc2ccc(NC3=CC(=O)N(C4CCC(=O)NC4=O)C3=O)cc2)cc1Cl (stereo not shown) [Compound 42] was tested on IKZF1 (Homo sapiens, UniProt Q13422), and its IKZF1 GFP/RFP Relative Abundance came to 0.775

Here CCOC(=O)CNC1=CC(=O)N(C2CCC(=O)NC2=O)C1=O (stereo not shown) [Compound 16] was tested on IKZF1 (Homo sapiens, UniProt Q13422), and its IKZF1 GFP/RFP Relative Abundance came to 1.070
